Target: acetylcholine receptor (Homo sapiens)
Sequence (P02708 21-457): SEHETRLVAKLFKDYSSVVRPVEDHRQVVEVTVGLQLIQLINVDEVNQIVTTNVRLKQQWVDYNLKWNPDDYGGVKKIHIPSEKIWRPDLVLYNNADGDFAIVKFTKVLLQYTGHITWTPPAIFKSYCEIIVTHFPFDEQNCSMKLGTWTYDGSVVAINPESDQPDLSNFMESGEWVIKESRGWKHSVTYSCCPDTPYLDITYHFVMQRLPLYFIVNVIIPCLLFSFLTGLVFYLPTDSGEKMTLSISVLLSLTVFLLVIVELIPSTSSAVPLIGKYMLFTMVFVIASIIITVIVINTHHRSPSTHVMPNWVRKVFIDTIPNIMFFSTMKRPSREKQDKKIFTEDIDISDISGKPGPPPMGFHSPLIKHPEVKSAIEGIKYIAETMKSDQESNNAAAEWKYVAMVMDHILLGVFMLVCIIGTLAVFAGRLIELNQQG
Assay: SPR binding affinity (RU) of optimized 5mer/6mer/7mer peptides, Examples 6-7
Details: SPR, Resonance Units; peptides tested at 10 μM; 6mer-2 Top sequence
Listed here are substances together with their documented Binding affinity.
# number only, unit Ru dropped from output

As a guide, the following entries are already answered.
6mer-2-530 (RSYSKR) : 139
6mer-2-558 (KSVCKK) : 154
6mer-2-489 (RVISKK) : 142
6mer-2-487 (KSYTKR) : 121
6mer-2-517 (KLRTKK) : 153

For 6mer-2-406 (KGIYRR) the substance record lists Binding affinity as 139

For 6mer-2-538 (KQFCKK) the substance record lists Binding affinity as 125

For 6mer-2-446 (RQLQKK) the substance record lists Binding affinity as 153

For 6mer-2-447 (RVYTKK) the substance record lists Binding affinity as 139

For 6mer-2-407 (KQVSKR) the substance record lists Binding affinity as 122

For 6mer-2-443 (RQYCRR) the substance record lists Binding affinity as 122

For 6mer-2-473 (RGRLRK) the substance record lists Binding affinity as 131
